The measured values listed here are drawn from patent US7226783B1.

Test system: alcohol dehydrogenase from Vanilla planifolia embryo culture (vanillyl alcohol dehydrogenase, VAD)
assay: Substrate specificity of vanillyl alcohol dehydrogenase (VAD)
Format: biochemical
measurement_setup: cofactor NADH
measured_parameter: Activity with the compound as substrate, NADH (nmoles · gfwt^−1 · min^−1)
One number for each entry, in nmoles · gfwt^−1 · min^−1.

Please supply Activity with the compound as substrate, NADH for each of the following items, keeping them in order.
1. COc1ccc(C=O)cc1O [4methoxy-3-hydroxybenzaldehyde]
2. O=Cc1ccc(O)cc1 [BA, p-hydroxybenzaldehyde]
3. O=Cc1ccc(O)c(O)c1 [PRO-ALD, 3,4-dihydroxybenzaldehyde]
4. CCOc1cc(C=O)ccc1O [4-hydroxy-3-ethoxybenzaldehyde]
5. COc1cc(/C=C/C=O)ccc1O
6. CCOc1cc(C=O)ccc1OC

1: 0.00; 2: 0.32; 3: 1.89; 4: 0.42; 5: 0.00; 6: 0.00

Please supply Activity with the compound as substrate, NADH for each of the following items, keeping them in order.
1. O=CC=Cc1ccccc1
2. O=Cc1ccccc1
3. COc1cc(C=O)ccc1O
4. CC=O

0.00
0.33
1.26
0.26

* * *

Kindly supply the reported Activity with the compound as substrate, NADPH values for the records listed here.
Tested on: alcohol dehydrogenase from Vanilla planifolia embryo culture (vanillyl alcohol dehydrogenase, VAD)
assay: Substrate specificity of vanillyl alcohol dehydrogenase (VAD)
Assay type: biochemical
measurement_setup: cofactor NADPH
Give bare numbers, in nmoles · gfwt^−1 · min^−1.

Study these solved cases before continuing.
compound: COc1cc(C=O)ccc1O
numeric_readout: 0.97
//
compound: O=Cc1ccc(O)cc1 [BA, p-hydroxybenzaldehyde]
numeric_readout: 0.14
//
compound: O=Cc1ccc(O)c(O)c1 [PRO-ALD, 3,4-dihydroxybenzaldehyde]
numeric_readout: 2.11
//
compound: O=Cc1ccccc1
numeric_readout: 0.18

As a next step, examine the compound that follows.
So what's the measured Activity with the compound as substrate, NADPH for this one? COc1ccc(C=O)cc1O [4methoxy-3-hydroxybenzaldehyde]
0.00

* * *

Tested on: Vanilla embryo culture
assay: Feeding vanilla embryo culture with vanillin precursors, HPLC analysis of metabolites
Format: cell-based, Vanilla planifolia
measurement_setup: precursor fed at 1 mM
Kindly supply the reported VN ALC (vanillyl alcohol) content of culture values for the records listed here.
Just the number plus its unit, please.

Study these solved cases before continuing.
compound: OCc1ccc(O)cc1 [HBA, p-hydroxybenzyl alcohol]
result: 9.6 mg/100 g dry wt.
//
compound: O=Cc1ccc(O)cc1 [BA, p-hydroxybenzaldehyde]
result: 12.3 mg/100 g dry wt.
//
compound: O=C(O)/C=C/c1ccc(O)cc1 [CA, p-coumaric acid]
result: 10 mg/100 g dry wt.

So what's the measured VN ALC (vanillyl alcohol) content of culture for this one? O=Cc1ccc(O)c(O)c1 [PRO-ALD, 3,4-dihydroxybenzaldehyde]
286.8 mg/100 g dry wt.

* * *

Test system: Vanilla embryo culture
assay: Feeding vanilla embryo culture with vanillin precursors, HPLC analysis of metabolites
Assay type: cell-based, Vanilla planifolia
measurement_setup: precursor fed at 1 mM
measured_parameter: PRO-ALD (3,4-dihydroxybenzaldehyde) content of culture (mg/100 g dry wt.)
One number for each entry, in mg/100 g dry wt..

compound: O=C(O)/C=C/c1ccc(O)cc1 [CA, p-coumaric acid]
unit_abbreviation: mg/100 g dry wt.
numeric_readout: 10
--
compound: O=Cc1ccc(O)c(O)c1 [PRO-ALD, 3,4-dihydroxybenzaldehyde]
unit_abbreviation: mg/100 g dry wt.
numeric_readout: 433
--
compound: OCc1ccc(O)cc1 [HBA, p-hydroxybenzyl alcohol]
unit_abbreviation: mg/100 g dry wt.
numeric_readout: 4.6

So what's the measured PRO-ALD (3,4-dihydroxybenzaldehyde) content of culture for this one? O=Cc1ccc(O)cc1 [BA, p-hydroxybenzaldehyde]
5.8
